# tested-target: Solute carrier family 22 member 6 (Rattus norvegicus, UniProt O35956)
# Sequence (O35956 whole entry): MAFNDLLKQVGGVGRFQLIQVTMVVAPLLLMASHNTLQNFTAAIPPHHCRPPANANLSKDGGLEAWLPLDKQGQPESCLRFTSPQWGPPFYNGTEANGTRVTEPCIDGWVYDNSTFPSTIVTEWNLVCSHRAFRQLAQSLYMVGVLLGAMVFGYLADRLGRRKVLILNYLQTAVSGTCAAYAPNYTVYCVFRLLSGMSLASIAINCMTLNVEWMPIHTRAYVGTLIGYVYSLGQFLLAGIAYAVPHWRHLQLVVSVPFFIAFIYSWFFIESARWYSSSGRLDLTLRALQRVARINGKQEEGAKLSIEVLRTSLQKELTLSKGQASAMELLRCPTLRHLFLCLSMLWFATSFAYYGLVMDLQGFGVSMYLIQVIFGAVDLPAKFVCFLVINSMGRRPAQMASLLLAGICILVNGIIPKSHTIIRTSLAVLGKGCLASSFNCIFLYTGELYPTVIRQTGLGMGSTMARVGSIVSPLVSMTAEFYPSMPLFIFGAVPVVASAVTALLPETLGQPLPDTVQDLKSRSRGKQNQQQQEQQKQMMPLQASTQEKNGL
# test-details: TP_TRANSPORTER: inhibition of PAH uptake in Oat1-expressing LLC-PK1 cells
pKi: −log10 of the molar value.

>  <compound>
C[C@]12CC[C@@H]3c4ccc(O)cc4CC[C@H]3[C@@H]1CC[C@@H]2O[C@@H]1O[C@H](C(=O)O)[C@@H](O)[C@H](O)[C@H]1O [ESTRADIOL 17B GLUCURONIDE]

>  <pKi>
< 3.52

$$$$
>  <compound>
CN/C(=N/CCSCc1nc[nH]c1C)NC#N

>  <pKi>
< 3.00

$$$$
